# TESTED_SYSTEM: UniProtKB P31645
# Sequence (P31645 whole entry): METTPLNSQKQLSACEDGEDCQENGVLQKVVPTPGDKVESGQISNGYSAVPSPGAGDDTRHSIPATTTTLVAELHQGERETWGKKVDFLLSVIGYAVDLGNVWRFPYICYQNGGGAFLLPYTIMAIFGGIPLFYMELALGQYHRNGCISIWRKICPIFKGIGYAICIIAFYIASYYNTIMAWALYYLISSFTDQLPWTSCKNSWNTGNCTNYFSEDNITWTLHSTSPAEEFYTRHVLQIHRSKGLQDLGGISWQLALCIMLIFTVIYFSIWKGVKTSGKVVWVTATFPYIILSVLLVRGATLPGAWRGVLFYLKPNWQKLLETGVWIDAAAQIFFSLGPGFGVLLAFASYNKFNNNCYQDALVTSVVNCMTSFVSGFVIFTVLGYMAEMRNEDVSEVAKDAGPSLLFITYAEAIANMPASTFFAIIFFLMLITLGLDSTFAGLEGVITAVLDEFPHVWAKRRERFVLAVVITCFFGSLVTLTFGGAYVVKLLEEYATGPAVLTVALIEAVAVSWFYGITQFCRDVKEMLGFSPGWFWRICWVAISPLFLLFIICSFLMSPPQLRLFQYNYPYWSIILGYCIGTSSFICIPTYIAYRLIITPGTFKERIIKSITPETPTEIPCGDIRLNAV
# EXPERIMENT_NOTES: Displacement of [125I]RTI-55 from human Serotonin transporter expressed in HEK293 cells
# Format: cell-based
Where a name gives a salt, the structure may show the parent alone.

- COMPOUND: "CCOC(=O)[C@@H](c1ccccc1)[C@@H]1CCCCN1 (stereo in doubt; (-)-2)"
  IC50: "> 9.5 µM"
- COMPOUND: "CCOC(=O)C(c1ccccc1)C1CCCCN1 (racemic)"
  IC50: "7.54 µM"
- COMPOUND: "COC(=O)C(c1ccccc1)C1CCCCN1 (racemic) [METHYLPHENIDATE HYDROCHLORIDE]"
  IC50: "> 10 µM"
